Molecular target: Protein deacetylase HDAC6 (Homo sapiens)
Conditions: at 10 µM
Screen size: about 5,600 compounds; about 390 (7%) showed an effect of 50% or more. The entries come from a sample that favours strong results as a whole.
Parameter: inhibition. Scope: all listed entries.
Dear colleague, please return just the value in %, with no unit written.

## Task Report inhibition, nothing else, for this compound: NC(=S)N/N=C/c1ccncc1
## Result 22.9

## Task Report inhibition, nothing else, for this compound: CC1=C[C@H](O)CC(C)(C)[C@H]1/C=C/C(C)=C/C=C/C(C)=C/C=C/C=C(C)/C=C/C=C(C)/C=C/C1=C(C)C[C@@H](O)CC1(C)C
## Result 5.04

---

Molecular target: Protein deacetylase HDAC6 (Homo sapiens) (UniProt Q9UBN7)
Sequence (Q9UBN7 whole entry): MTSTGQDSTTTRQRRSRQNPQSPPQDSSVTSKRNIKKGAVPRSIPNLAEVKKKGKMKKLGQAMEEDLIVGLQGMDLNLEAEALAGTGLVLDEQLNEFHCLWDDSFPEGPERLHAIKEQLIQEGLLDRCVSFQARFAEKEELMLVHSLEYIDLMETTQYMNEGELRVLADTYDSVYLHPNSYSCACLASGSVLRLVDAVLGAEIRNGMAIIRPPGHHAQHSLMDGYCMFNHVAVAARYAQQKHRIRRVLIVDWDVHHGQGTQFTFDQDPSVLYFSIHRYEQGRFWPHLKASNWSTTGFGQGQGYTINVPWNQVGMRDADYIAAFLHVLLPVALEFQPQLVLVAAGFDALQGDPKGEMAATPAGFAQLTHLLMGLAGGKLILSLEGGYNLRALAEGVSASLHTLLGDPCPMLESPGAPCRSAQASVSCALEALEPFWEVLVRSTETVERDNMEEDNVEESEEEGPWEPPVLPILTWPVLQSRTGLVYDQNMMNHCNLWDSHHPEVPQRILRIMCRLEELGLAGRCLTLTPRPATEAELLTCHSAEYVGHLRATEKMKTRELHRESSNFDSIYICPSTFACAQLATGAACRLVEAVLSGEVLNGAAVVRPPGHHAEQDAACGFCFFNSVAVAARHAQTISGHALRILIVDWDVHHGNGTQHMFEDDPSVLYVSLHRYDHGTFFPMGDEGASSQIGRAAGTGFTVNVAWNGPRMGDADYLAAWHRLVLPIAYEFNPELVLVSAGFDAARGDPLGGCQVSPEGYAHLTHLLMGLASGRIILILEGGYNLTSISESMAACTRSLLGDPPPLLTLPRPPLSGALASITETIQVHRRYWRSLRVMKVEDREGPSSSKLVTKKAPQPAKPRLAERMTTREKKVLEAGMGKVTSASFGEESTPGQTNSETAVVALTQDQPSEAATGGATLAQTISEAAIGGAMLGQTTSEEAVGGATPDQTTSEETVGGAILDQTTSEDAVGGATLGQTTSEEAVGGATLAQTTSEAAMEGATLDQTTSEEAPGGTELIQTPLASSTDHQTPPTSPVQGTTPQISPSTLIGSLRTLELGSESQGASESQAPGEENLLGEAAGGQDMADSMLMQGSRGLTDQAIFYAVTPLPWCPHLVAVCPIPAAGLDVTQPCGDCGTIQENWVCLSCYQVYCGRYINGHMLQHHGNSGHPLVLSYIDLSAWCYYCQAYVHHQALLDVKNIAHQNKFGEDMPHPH
Conditions: at 10 µM
Screen size: about 5,600 compounds; about 390 (7%) showed an effect of 50% or more. This is one part of a sample in which strong results are shown more often than they occur.
Parameter: inhibition. Scope: all listed entries.
Dear colleague, please return just the value in %, with no unit written.

COC(=O)[C@H](Cc1ccc([N+](=O)[O-])cc1)NC(=O)c1cccc2ccccc12    10.5
CC(=O)Oc1c(C)cccc1C(=O)O    17
CCNC1=Nc2ccc(Cl)cc2C(C)(c2ccccc2)O1 (stereo not given)    3.39
C[C@]12C=CC(=O)N[C@@H]1CC[C@@H]1[C@@H]2CC[C@]2(C)[C@@H](C(=O)Nc3cc(C(F)(F)F)ccc3C(F)(F)F)CC[C@@H]12    34.1

## Task Report inhibition, nothing else, for this molecule: CCC1=C[C@@H]2CN3CCc4c([nH]c5ccccc45)[C@@](C(=O)OC)(C2)[C@@H]13
## Result 2.61

---

Parameter: inhibition. Scope: all listed entries.
Biological target: Protein deacetylase HDAC6 (Homo sapiens) (UniProt Q9UBN7)
Conditions: at 10 µM
The whole screen tested about 5,600 compounds, of which about 390 (7%) showed an effect of 50% or more. The sample as a whole holds a higher share of strong results than the screen did.

Reference set (5 entries):
O=C1N=C(N2CCOCC2)CN1c1ccc(Cl)cc1    8.65%
O=C(O[C@H]1[C@H](OC(=O)c2cccnc2)[C@@H](OC(=O)c2cccnc2)[C@H](OC(=O)c2cccnc2)[C@@H](OC(=O)c2cccnc2)[C@H]1OC(=O)c1cccnc1)c1cccnc1    -5.99%
O=C(O)CCCCCCNC1c2ccccc2CCc2ccccc21    0.36%
Cc1cc(O)c2c(c1)C(=O)c1cc(O)cc(O)c1C2=O    99.6%
O=C(Oc1cccc2cccnc12)c1ccccc1    87.1%

Okay, now this compound:
## Task Report inhibition, nothing else, for this compound: CS(=O)(=O)c1ccc(-c2cn3ccccc3n2)cc1
## Result 99.6%

---

Target: Protein deacetylase HDAC6 (Homo sapiens)
Conditions: at 10 µM
Screen size: about 5,600 compounds; about 390 (7%) showed an effect of 50% or more. Shown is part of a subset that was picked to be rich in strong results.
Parameter: inhibition. Scope: all listed entries.
Number first, unit second: that is the form wanted.

## Task Report inhibition, nothing else, for this compound: Cc1c(N)cccc1Cn1ccc(OCCc2cccs2)cc1=O
## Result -7.53%

## Task Report inhibition, nothing else, for this compound: Cc1cccc(C(=O)O)c1O
## Result 35.8%

## Task Report inhibition, nothing else, for this compound: O=[N+]([O-])c1cc(Cl)ccc1S(=O)(=O)c1ccccc1
## Result 13.8%

## Task Report inhibition, nothing else, for this compound: CCC(=O)NO
## Result 83.8%

## Task Report inhibition, nothing else, for this compound: C/C(=C(/CCOC(=O)C(C)C)SS/C(CCOC(=O)C(C)C)=C(\C)N(C=O)Cc1cnc(C)nc1N)N(C=O)Cc1cnc(C)nc1N
## Result 9.58%

## Task Report inhibition, nothing else, for this compound: CC(C)COC(=O)c1ccc(N)cc1
## Result 82.8%
